target system: Human immunodeficiency virus type 1 reverse transcriptase (Human immunodeficiency virus 1, UniProt Q72547)
pIC50: −log10 of the molar value.
measured metric: pIC50

[
  {
    "compound": "O=C1CS[C@H]2[C@H](O)[C@H](O)[C@H](O)CN12",
    "measurement": 4.89
  }
]

(a) O=C1CS[C@@H]2[C@H](O)[C@H](O)[C@H](O)CN12
(b) O=C1S[C@@H]2[C@H](O)[C@H](O)[C@H](O)CN2C1=O
(c) O=C1C[S+]([O-])[C@@H]2[C@H](O)[C@H](O)[C@H](O)CN12 (some centres not stated)
(d) O=C1C[S+]([O-])[C@H]2[C@H](O)[C@H](O)[C@H](O)CN12 (some centres not stated)
Thanks in advance: please rank these 4 entries by pIC50, highest to lowest. Rank the items, then write their labels in that order.
c, b, d, a

(P) O=C1S[C@H]2[C@H](O)[C@H](O)[C@H](O)CN2C1=O
(Q) O=C1C(O)S[C@H]2[C@H](O)[C@H](O)[C@H](O)CN12 (some centres not stated)
Of P and Q , which carries the smaller reported pIC50 figure? I would appreciate it if you answered with the label of your choice.
P
(P: 5.37, Q: 5.76)

Numbers sourced from ChEMBL document CHEMBL2203139.
